The measured values listed here are drawn from the Kinase Knowledgebase extract (Sharma et al. 2016).

# ASSAYED_TARGET: PIK3CA (human) (UniProt P42336)
# Sequence (P42336 whole entry, looked up): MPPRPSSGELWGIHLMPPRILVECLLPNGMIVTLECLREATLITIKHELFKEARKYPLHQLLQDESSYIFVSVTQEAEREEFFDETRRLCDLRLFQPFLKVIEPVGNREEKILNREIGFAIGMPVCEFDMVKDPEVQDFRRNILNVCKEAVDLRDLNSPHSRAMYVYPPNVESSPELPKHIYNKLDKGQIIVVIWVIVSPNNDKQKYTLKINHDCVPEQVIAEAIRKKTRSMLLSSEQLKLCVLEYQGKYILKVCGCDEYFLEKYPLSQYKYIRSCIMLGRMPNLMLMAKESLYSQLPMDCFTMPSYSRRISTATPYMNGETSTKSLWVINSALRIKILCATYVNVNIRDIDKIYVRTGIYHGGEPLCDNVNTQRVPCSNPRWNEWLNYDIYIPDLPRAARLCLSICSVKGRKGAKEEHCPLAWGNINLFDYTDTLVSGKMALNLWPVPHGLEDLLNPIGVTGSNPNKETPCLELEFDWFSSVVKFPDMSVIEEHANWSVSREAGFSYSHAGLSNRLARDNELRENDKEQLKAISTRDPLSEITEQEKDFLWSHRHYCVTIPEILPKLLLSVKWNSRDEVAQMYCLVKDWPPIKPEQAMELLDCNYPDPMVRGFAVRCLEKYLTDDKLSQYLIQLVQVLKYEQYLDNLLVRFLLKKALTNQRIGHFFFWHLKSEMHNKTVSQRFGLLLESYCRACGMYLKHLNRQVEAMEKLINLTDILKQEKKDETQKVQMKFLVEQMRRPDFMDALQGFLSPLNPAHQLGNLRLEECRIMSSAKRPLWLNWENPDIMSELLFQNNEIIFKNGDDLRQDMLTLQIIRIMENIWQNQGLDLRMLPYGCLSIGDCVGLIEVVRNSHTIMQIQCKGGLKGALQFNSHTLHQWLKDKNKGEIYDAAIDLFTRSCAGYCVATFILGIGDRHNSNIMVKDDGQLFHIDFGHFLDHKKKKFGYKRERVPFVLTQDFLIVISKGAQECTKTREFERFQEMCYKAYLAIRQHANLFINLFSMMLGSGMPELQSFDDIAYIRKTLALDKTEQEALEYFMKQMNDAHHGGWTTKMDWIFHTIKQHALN
pIC50: −log10 of the molar value.
ENDPOINT_NAME: pIC50

CNC(=O)Nc1cc(-c2sc(-c3ccn[nH]3)c(-c3ccc(Cl)cc3Cl)c2C#N)ccn1 :: 6.00 to 7.00
COC[C@H]1CCCN1CCC(=O)Nc1cc(-c2nc(-c3ccccc3)c(-c3nnc[nH]3)s2)ccn1 :: > 7.00
CC(=O)Nc1cc(-c2nc(-c3ccc(C(C)(C)C#N)cc3)c(-c3ncc[nH]3)s2)ccn1 :: 6.00 to 7.00
CC(=O)Nc1cc(-c2cc(-c3ccc(Cl)cc3Cl)c(-c3ncc[nH]3)s2)ncn1 :: > 7.00
COC(=O)Nc1cc(-c2cc(-c3ccc(Cl)cc3Cl)c(-c3ncc[nH]3)s2)ccn1 :: > 7.00
Cc1nn2ccccc2c1-c1nc(-c2ccc[nH]2)c(-c2nc[nH]n2)s1 :: 6.00 to 7.00
COCCNc1nccc(-c2sc(-c3nnc[nH]3)c(-c3ccc(Cl)cc3Cl)c2C#N)n1 :: > 7.00
CC(=O)Nc1cc(-c2nc(-c3ccc(F)cc3F)c(-c3ncc[nH]3)s2)ccn1 :: > 7.00
CC(=O)Nc1cc(-c2sc(-c3nccn3C)c(-c3ccc(Cl)cc3Cl)c2C#N)ccn1 :: 6.00 to 7.00
CC(=O)Nc1cc(-c2sc(-c3nccn3Cc3cccnc3)c(-c3ccc(Cl)cc3Cl)c2C#N)ccn1 :: 6.00 to 7.00

IN: Answer with reported pIC50 of CCNc1cc(-c2nc(-c3cc(CCN)ccc3Cl)c(-c3ncc[nH]3)s2)ccn1
OUT: 6.00 to 7.00

IN: Consider the compound O=C(Nc1cc(-c2cc(-c3ccc(Cl)cc3Cl)c(-c3ncc[nH]3)s2)ccn1)C1CC1 and give its recorded pIC50.
OUT: > 7.00

IN: Identify the reported pIC50 for the following entry. c1ccc(-c2nc(-c3cnn4ccccc34)sc2-c2nnc[nH]2)cc1
OUT: 6.00 to 7.00

IN: For the compound COc1cccc(F)c1-c1nc(-c2c(C)nn3ccc(OCCN4CCN(S(C)(=O)=O)CC4)cc23)sc1-c1nc[nH]n1 , give its measured pIC50 value.
OUT: > 7.00

IN: Return value of pIC50 for input COc1cccc(F)c1-c1nc(-c2c(C)nn3ccc(OC4CCN(C(C)=O)CC4)cc23)sc1-c1nc[nH]n1 , no commentary.
OUT: > 7.00

IN: Input O=C(Nc1cc(-c2nc(-c3ccccc3)c(-c3nnc[nH]3)s2)ccn1)C1CC1 , output reported pIC50.
OUT: > 7.00

IN: Provide pIC50 value for the following compound: Cc1nc2ccc(CN3CC[C@H](N)C3)cn2c1-c1nc(-c2ccccc2)c(-c2nnc[nH]2)s1
OUT: > 7.00

IN: Give me measured pIC50, please, for this compound: N#Cc1c(-c2ccnc(N)n2)sc(-c2nnc[nH]2)c1-c1ccc(Cl)cc1Cl
OUT: > 7.00

IN: # return recorded pIC50 for entry N#Cc1c(-c2ccnc(NC(=O)c3ccncc3)c2)sc(-c2nnc[nH]2)c1-c1ccc(Cl)cc1Cl
OUT: 6.00 to 7.00

IN: Specify pIC50 for Nc1nc2c(-c3cc(-c4ccc(Cl)cc4Cl)c(-c4ncc[nH]4)s3)ncnc2s1 and stop.
OUT: > 7.00

IN: Report pIC50, nothing else, for this compound: CNc1cc(-c2sc(-c3ncc[nH]3)c(-c3ccc(Cl)cc3Cl)c2C#N)ccn1
OUT: > 7.00

---

pIC50 values for the compounds below.
# ASSAYED_TARGET: PIK3CA (human) (UniProt P42336)
pIC50: −log10 of the molar value.

CCOc1nc(-c2ccnc(NC(=O)CC(C)C)c2)sc1-c1nnc[nH]1 :: 6.00 to 7.00
Cc1nn2ccccc2c1-c1nc(-c2ccc(F)cc2)c(-c2nnc[nH]2)s1 :: > 7.00
Cc1nc2ccc(CNCCN)cn2c1-c1nc(-c2ccccc2)c(-c2nnc[nH]2)s1 :: > 7.00
CC(=O)Nc1cc(-c2nc(-c3c(C)cccc3C)c(-c3nnc[nH]3)s2)ccn1 :: 6.00 to 7.00
CNc1nccc(-c2sc(-c3nnc[nH]3)c(-c3ccc(Cl)cc3Cl)c2C#N)n1 :: > 7.00
Nc1cc(-c2nc(-c3ccccc3)c(-c3nnc[nH]3)s2)ccn1 :: 6.00 to 7.00
N#Cc1c(-c2cc(N)ncn2)sc(C(N)=O)c1-c1ccc(Cl)cc1Cl :: 6.00 to 7.00
COc1cccc(F)c1-c1nc(-c2c(C)nn3ccccc23)sc1-c1nc[nH]n1 :: > 7.00

IN: Report pIC50 on PIK3CA (human) (UniProt P42336) for this entry: CCCC(=O)Nc1cc(-c2nc(OCC)c(-c3nnc[nH]3)s2)ccn1
OUT: 6.00 to 7.00

IN: State measured pIC50 of the compound Cc1nc2ccc(CCCN)cn2c1-c1nc(-c2ccccc2)c(-c2nnc[nH]2)s1 with PIK3CA (human) (UniProt P42336).
OUT: > 7.00

IN: Print PIK3CA (human) (UniProt P42336) pIC50 for Cc1nn2ccccc2c1-c1nc(-c2cccs2)c(-c2nc[nH]n2)s1 .
OUT: > 7.00

IN: Please report pIC50 with PIK3CA (human) (UniProt P42336) for item CC(=O)Nc1cc(-c2nc(-c3ccc(C(F)(F)F)cc3)c(-c3ncc[nH]3)s2)ccn1 .
OUT: > 7.00

IN: Identify measured pIC50 obtained with PIK3CA (human) (UniProt P42336) for COc1ccc(-c2ccc3nc(C)c(-c4nc(-c5ccccc5)c(-c5nc[nH]n5)s4)n3c2)cc1OC .
OUT: > 7.00

IN: // output pIC50; input Cc1nn2ccsc2c1-c1nc(OCc2ccccc2)c(-c2nnc[nH]2)s1 ; system PIK3CA (human) (UniProt P42336)
OUT: > 7.00

IN: Provide measured pIC50 on PIK3CA (human) (UniProt P42336) for Cc1nn2ccccc2c1-c1nc(C2CCCCC2)c(-c2nnc[nH]2)s1 please.
OUT: > 7.00

IN: Look up PIK3CA (human) (UniProt P42336) data: pIC50 of Cc1nn2ccccc2c1-c1nc(-c2cccc(OCc3ccccc3)c2)c(-c2nc[nH]n2)s1 , then report it.
OUT: 6.00 to 7.00

IN: // fetch pIC50 for N#Cc1c(-c2ccncc2)sc(-c2nnc[nH]2)c1-c1ccc(Cl)cc1Cl ; system: PIK3CA (human) (UniProt P42336)
OUT: 6.00 to 7.00

IN: GET pIC50 | system: PIK3CA (human) (UniProt P42336) | item: CCOc1nc(-c2ccnc(NC(=O)CCc3ccccc3)c2)sc1-c1nnc[nH]1
OUT: > 7.00

IN: Report its pIC50 with PIK3CA (human) (UniProt P42336) as the test system: Cc1ccc(-c2nc(-c3c(C)nn4ccccc34)sc2-c2nc[nH]n2)o1
OUT: > 7.00

IN: Fill: pIC50 (PIK3CA (human) (UniProt P42336)) for this compound N#Cc1c(-c2ccnc(NCCO)n2)sc(-c2nnc[nH]2)c1-c1ccc(Cl)cc1Cl
OUT: > 7.00

---

# ASSAYED_TARGET: PIK3CA (human)
# ASSAY_PROTOCOL: Assessment of PI3KCA Kinase Activity
pIC50: −log10 of the molar value.
We begin with a simple list: items and their reported pIC50.

IN: State the measured pIC50 (PIK3CA (human)) of CC(=O)Nc1cc(-c2nc(-c3ccccc3Cl)c(-c3ncc[nH]3)s2)ccn1
OUT: > 7.00

IN: Please report pIC50 with PIK3CA (human) for item C[C@H](O)C(=O)Nc1cc(-c2sc(-c3nnc[nH]3)c(-c3ccc(Cl)cc3Cl)c2C#N)ccn1 .
OUT: 6.00 to 7.00

IN: Name the value of pIC50 reported for CC(=O)Nc1cc(-c2nc(-c3ccc4nonc4c3)c(-c3ncc[nH]3)s2)ccn1 when tested on PIK3CA (human).
OUT: 6.00 to 7.00

IN: Give pIC50 only, for COc1cccc(F)c1-c1ccc2nc(C)c(-c3nc(-c4ccccc4)c(-c4nc[nH]n4)s3)n2c1 , using PIK3CA (human) data.
OUT: 6.00 to 7.00

IN: Give pIC50; test system PIK3CA (human); molecule CN(C)CC(=O)Nc1cc(-c2sc(-c3nnc[nH]3)c(-c3ccc(Cl)cc3Cl)c2C#N)ccn1
OUT: 6.00 to 7.00

IN: For PIK3CA (human), give pIC50 of the listed molecule: CC(=O)Nc1cc(-c2nc(-c3cccc(C(F)(F)F)c3)c(-c3ncc[nH]3)s2)ccn1
OUT: 6.00 to 7.00

IN: Please indicate recorded pIC50 of Cc1nc2ccc(CCN)cn2c1-c1nc(-c2ccccc2)c(-c2nnc[nH]2)s1 measured with PIK3CA (human).
OUT: > 7.00

IN: Enter pIC50 (test system PIK3CA (human)) for COc1ccccc1-c1nc(-c2c(C)nn3ccccc23)sc1-c1nnc[nH]1
OUT: > 7.00
